- Tested on: A549
- Assay overview: Antiproliferative activity against human A549 cells assessed as reduction in cell viability incubated for 24 hrs by SRB assay
- Format: functional, cell-based
- Measurement context: A549, 24 h
Outcome measure: IC50

| Molecule | IC50 |
| --- | --- |
| COc1cc(/C=C/C(=O)N[C@H]2CCc3cc(OC)c(OC)c(OC)c3-c3ccc(SC)c(=O)cc32)ccc1O | 5.8 nM |

Prompt line: Request the reported IC50 associated with COc1cc2c(c(OC)c1OC)-c1ccc(SC)c(=O)cc1[C@@H](NC(=O)CCC1=C(C)c3cc4[nH]c(cc5nc(cc6[nH]c(cc1n3)c(CCC(=O)N[C@H]1CCc3cc(OC)c(OC)c(OC)c3-c3ccc(SC)c(=O)cc31)c6C)C(C(C)O)=C5C)c(C(C)O)c4C)CC2 (stereo not given in full)
Response line: 1680 nM

Prompt line: Reported IC50 for "CCCCCCCCCCCCCC[C@H]1OC(C)(C)O[C@H]1[C@@H](NC(=O)OC(C)(C)C)C(=O)N[C@H]1CCc2cc(OC)c(OC)c(OC)c2-c2ccc(SC)c(=O)cc21" : what is it?
Response line: 228 nM

Prompt line: What value of IC50 has been recorded for this entry: "C=C(C)[C@@H]1CC=C(C(=O)N[C@H]2CCc3cc(OC)c(OC)c(OC)c3-c3ccc(SC)c(=O)cc32)CC1"
Response line: 7.5 nM

Prompt line: # get_value(readout='IC50', item= "COc1cc2c(c(OC)c1OC)-c1ccc(SC)c(=O)cc1[C@@H](NC(=O)[C@H](O)[C@@H](O)[C@H](O)[C@H](O)CO)CC2" )
Response line: 14.2 nM

Prompt line: Which measured IC50 value corresponds to COc1cc2c(c(OC)c1OC)-c1ccc(OC)c(=O)cc1[C@@H](NC(C)=O)CC2 [COLCHICINE] ?
Response line: 21 nM

Prompt line: Field request: IC50 | item: "COc1cc2c(c(OC)c1OC)-c1ccc(SC)c(=O)cc1[C@@H](NC(=O)Cc1ccccc1Nc1c(Cl)cccc1Cl)CC2"
Response line: 520 nM

----------
- Test target: ATP-dependent translocase ABCB1 (Homo sapiens)
- Sequence (P08183 whole entry): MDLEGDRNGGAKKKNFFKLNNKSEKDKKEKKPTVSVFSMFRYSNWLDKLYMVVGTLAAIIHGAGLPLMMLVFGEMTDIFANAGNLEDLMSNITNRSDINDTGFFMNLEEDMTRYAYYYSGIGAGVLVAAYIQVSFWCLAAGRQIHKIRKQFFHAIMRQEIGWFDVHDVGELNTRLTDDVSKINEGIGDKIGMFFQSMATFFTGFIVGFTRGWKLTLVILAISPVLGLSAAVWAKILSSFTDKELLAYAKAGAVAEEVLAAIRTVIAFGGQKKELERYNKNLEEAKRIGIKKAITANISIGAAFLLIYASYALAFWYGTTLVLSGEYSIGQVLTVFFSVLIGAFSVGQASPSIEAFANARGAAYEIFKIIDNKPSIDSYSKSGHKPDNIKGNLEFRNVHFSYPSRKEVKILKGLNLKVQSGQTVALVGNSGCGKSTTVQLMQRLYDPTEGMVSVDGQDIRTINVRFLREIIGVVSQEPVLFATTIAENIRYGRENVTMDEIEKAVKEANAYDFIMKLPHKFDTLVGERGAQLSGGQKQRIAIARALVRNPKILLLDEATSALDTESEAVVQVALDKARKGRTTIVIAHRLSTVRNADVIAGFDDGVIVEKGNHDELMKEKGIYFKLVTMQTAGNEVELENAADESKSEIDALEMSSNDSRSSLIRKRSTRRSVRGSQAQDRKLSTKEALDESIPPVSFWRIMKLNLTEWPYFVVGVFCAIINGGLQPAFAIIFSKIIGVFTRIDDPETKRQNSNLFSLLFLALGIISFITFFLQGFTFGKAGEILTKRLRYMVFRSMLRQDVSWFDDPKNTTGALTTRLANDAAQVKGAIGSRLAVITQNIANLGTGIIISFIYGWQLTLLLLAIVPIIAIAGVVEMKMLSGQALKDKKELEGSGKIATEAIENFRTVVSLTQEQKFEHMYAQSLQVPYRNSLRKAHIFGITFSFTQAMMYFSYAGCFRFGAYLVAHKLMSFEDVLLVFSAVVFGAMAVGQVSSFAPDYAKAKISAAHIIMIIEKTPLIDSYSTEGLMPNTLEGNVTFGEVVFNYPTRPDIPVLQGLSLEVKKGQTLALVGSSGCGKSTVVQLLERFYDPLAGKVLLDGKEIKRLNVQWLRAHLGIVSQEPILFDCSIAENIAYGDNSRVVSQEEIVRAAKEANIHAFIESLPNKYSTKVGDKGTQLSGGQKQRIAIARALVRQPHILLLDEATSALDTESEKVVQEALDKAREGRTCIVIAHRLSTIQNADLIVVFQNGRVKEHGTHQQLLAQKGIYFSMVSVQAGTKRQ
- Assay overview: Induction of P-gp in human LS180 cells assessed as […] in intracellular accumulation of Rh123 at 100 nM using Rho123 as substrate preincubated for 48 hrs followed by addition of Rh123 and measured after 90 mins by fluorescence based assay relative to control
- Assay type: cell-based
- Measurement context: ls180, 48 h preincubation, then 1.5 h with Rh123, 0.1 µM
Outcome measure: Activity (%)
Quick reminder: number only, in %, skip the unit.

Some solved entries appear below for comparison.
| Compound | Activity (%) |
| --- | --- |
| COc1cc2c(c(OC)c1OC)-c1ccc(N3CCOCC3)c(=O)cc1[C@@H](NC(C)=O)CC2 | 95.97 |
| COc1cc2c(c(OC)c1OC)-c1ccc(N3CCC4c5ccccc5NC4C3)c(=O)cc1[C@@H](NC(C)=O)CC2 (stereo not given in full) | 119.7 |
| COc1cc2c(c(OC)c1OC)-c1ccc(Nc3ccc(F)c(Cl)c3)c(=O)cc1[C@@H](NC(C)=O)CC2 | 90.05 |
| COc1cc2c(c(OC)c1OC)-c1ccc(Nc3ccc4c(c3)OCO4)c(=O)cc1[C@@H](NC(C)=O)CC2 | 102.66 |

In the following, a different compound is considered.
Prompt line: Query (compound): "COc1cc2c(c(OC)c1OC)-c1ccc(N3CCC[C@@H]3CO)c(=O)cc1[C@@H](NC(C)=O)CC2" ; field requested: Activity
Response line: 86.53
